Recorded Median IC50 against viruses neutralized with an IC50 <50 µg/ml for the following binders
target: Env of the clade F HIV-1 pseudoviruses of the cross-clade 162-pseudovirus panel (n = 15); assay: cell-based or functional assay
Quick note: give the figure in µg/mL, leave out the unit.

Worked cases, answers included:
QUERY: Complete the entry with Median IC50 against viruses neutralized with an IC50 <50 µg/ml for PGT-127 (antibody, V domains shown) VH: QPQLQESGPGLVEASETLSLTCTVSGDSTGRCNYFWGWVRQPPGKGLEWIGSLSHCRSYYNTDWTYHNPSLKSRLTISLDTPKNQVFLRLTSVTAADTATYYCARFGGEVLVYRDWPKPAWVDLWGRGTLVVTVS VL: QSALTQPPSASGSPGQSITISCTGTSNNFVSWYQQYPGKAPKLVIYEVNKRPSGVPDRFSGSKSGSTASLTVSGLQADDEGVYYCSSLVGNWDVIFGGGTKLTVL
RESULT: 0.65

QUERY: Complete the entry with Median IC50 against viruses neutralized with an IC50 <50 µg/ml for PGT-137 (antibody, V domains shown) VH: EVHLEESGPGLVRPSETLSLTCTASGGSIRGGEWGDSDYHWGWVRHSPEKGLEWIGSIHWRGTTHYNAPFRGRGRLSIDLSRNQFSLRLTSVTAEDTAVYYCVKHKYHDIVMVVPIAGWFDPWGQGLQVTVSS VL: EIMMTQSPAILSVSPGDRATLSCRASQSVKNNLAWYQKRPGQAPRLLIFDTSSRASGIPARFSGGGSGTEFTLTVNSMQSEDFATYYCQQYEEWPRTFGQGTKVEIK
RESULT: 6.23

QUERY: Complete the entry with Median IC50 against viruses neutralized with an IC50 <50 µg/ml for PGT-128 (antibody, V domains shown) VH: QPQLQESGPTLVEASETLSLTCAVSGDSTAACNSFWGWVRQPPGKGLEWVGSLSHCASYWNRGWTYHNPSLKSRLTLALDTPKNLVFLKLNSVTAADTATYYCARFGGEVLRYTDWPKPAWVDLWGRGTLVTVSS VL: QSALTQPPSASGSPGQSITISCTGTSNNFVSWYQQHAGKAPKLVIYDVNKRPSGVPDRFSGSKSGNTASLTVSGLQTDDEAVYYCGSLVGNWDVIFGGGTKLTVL
RESULT: 0.52

Note: attention shifts to another entry.
QUERY: Complete the entry with Median IC50 against viruses neutralized with an IC50 <50 µg/ml for PGT-136 (antibody, V domains shown) VH: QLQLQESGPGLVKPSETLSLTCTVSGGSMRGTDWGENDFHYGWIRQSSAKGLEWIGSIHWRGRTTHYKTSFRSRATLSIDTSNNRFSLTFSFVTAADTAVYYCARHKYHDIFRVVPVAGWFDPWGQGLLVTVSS VL: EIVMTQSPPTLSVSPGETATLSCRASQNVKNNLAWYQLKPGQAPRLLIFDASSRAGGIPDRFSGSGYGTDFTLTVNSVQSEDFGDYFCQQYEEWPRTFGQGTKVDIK
RESULT: 4.75
